// data source = ChEMBL document CHEMBL3046126

Items are presented alongside their recorded ED10.
# Tested on: Oryza sativa
# Assay Notes: Pre-emergence phytotoxicity against Oryza sativa cv. Koshihikari (rice) assessed as phytotoxic crop injury visual ratings measured after 14 days post treatment
# Format: organism-based
# Experimental Parameters: in vivo, 336 h
Answer format: value, then unit.

The following molecules have reported results that may help.
| Molecule | Target Or Test System | ED10 |
| --- | --- | --- |
| C#CCSc1cc(N2C(=O)OC(=C(C)C)C2=O)c(F)cc1Cl | Oryza sativa | 50 gAi/ha |
| CC(C)Oc1cc(-n2nc(C(C)(C)C)oc2=O)c(Cl)cc1Cl [OXADIAZON] | Oryza sativa | 200 gAi/ha |
| C#CC(C)Oc1cc(N2C(=O)OC(=C(C)C)C2=O)c(F)cc1Cl (stereo unspecified) | Oryza sativa | 6.25 gAi/ha |
| CC(C)=C1OC(=O)N(c2cc(OC(C)C)c(Cl)cc2F)C1=O | Oryza sativa | 100 gAi/ha |
| CC(C)=C1OC(=O)N(c2cc(OC3CCCCC3)c(Cl)cc2F)C1=O | Oryza sativa | 200 gAi/ha |

Could you now consider this next molecule?
Form field ED10, entry CC(C)=C1OC(=O)N(c2cc(OC3CCCC3)c(Cl)cc2F)C1=O [PENTOXAZONE] : 200 gAi/ha
